// data source = patent US20170247475A1

- tgt: T1, recombinant human VEGF165 (human, UniProt P15692-4 27-191)
- T1 construct: also called hVEGF165; rhVEGF165
- assay.method.text: SPR Biacore T100, hVEGF165 on chip, Two State Reaction model
- Description: Samples are injected for 2 min and allowed to dissociate up to 20 min at a flow rate of 45 μI/min. In between sample injections, the chip surface is regenerated with 100 mM HCl. HBS-EP+(Hepes buffer pH7.4+EDTA) is used as running buffer. Binding curves are fitted using a Two State Reaction model by Biacore T100 Evaluation Software v2.0.1. ^{(a)}KD = kd1/kₐ₁ * (kd2/(kd2 + kₐ₂)) ^{(b)}Curves are fitted using a Two State Reaction model by Biacore T100 Evaluation Software v2.0.1
test.readout: kd2 (s⁻¹)

[[record]]
binder = "VEGFBII023 (VHH, biparatopic bivalent VHH in one chain; also called VEGFBII23B04-40GS-10E07; VEGFBI023) EVQLVESGGGLVQTGDSLRLSCEVSGRTFSSYSMGWFRQAQGKEREFVVAISKGGYKYDSVSLEGRFTISKDNAKNTVYLQINSLKPEDTAVYYCASSRAYGSSRLRLADTYEYWGQGTQVTVSSGGGGSGGGGSGGGGSGGGGSGGGGSGGGGSGGGGSGGGGSEVQLVESGGGLVQAGGSLRLSCAASGRTFSNYAMGWFRQAPGKERVLVADISSSGINTYVADAVKGRFTISRDNAKNTVYLQMNSLKPEDTAVYYCAASAWWYSQMARDNYRYWGQGTQVTVSS"
measured_number = 0.00027

[[record]]
binder = "VEGFBII022 (VHH, biparatopic bivalent VHH in one chain; also called VEGFBII23B04-9GS-5B05) EVQLVESGGGLVQTGDSLRLSCEVSGRTFSSYSMGWFRQAQGKEREFVVAISKGGYKYDSVSLEGRFTISKDNAKNTVYLQINSLKPEDTAVYYCASSRAYGSSRLRLADTYEYWGQGTQVTVSSGGGGSGGGSEVQLVESGGGLVQPGGSLRLSCVASGIRFMSMAWYRQAPGKHRELVARISSGGTTAYVDSVKGRFTISRDNSKNTVYLQMNSLKAEDTAVYYCNTFSSRPNPWGAGTQVTVSS"
measured_number = 0.00026

[[record]]
binder = "VEGFBII024 (VHH, biparatopic bivalent VHH in one chain; also called VEGFBII23B04-40GS-86H09; VEGFBI024) EVQLVESGGGLVQTGDSLRLSCEVSGRTFSSYSMGWFRQAQGKEREFVVAISKGGYKYDSVSLEGRFTISKDNAKNTVYLQINSLKPEDTAVYYCASSRAYGSSRLRLADTYEYWGQGTQVTVSSGGGGSGGGGSGGGGSGGGGSGGGGSGGGGSGGGGSGGGGSEVQLVESGGGLVQAGGSLRLSCTASGSAFKSYRMGWFRRTPGKEDEFVASISWTYGSTFYADSVKGRFTMSRDKAKNAGYLQMNSLKPEDTALYYCAAGAQSDRYNIRSYDYWGQGTQVTVSS"
measured_number = 0.00028

[[record]]
binder = "VEGFBII021 (VHH, biparatopic bivalent VHH in one chain; also called VEGFBII23B04-40GS-5B05) EVQLVESGGGLVQTGDSLRLSCEVSGRTFSSYSMGWFRQAQGKEREFVVAISKGGYKYDSVSLEGRFTISKDNAKNTVYLQINSLKPEDTAVYYCASSRAYGSSRLRLADTYEYWGQGTQVTVSSGGGGSGGGGSGGGGSGGGGSGGGGSGGGGSGGGGSGGGGSEVQLVESGGGLVQPGGSLRLSCVASGIRFMSMAWYRQAPGKHRELVARISSGGTTAYVDSVKGRFTISRDNSKNTVYLQMNSLKAEDTAVYYCNTFSSRPNPWGAGTQVTVSS"
measured_number = 0.00019

[[record]]
binder = "VEGFBII010 (VHH, bivalent VHH in one chain; also called VEGFBII23B04-35GS-23B04; homodimeric VEGFBII23B04) EVQLVESGGGLVQTGDSLRLSCEVSGRTFSSYSMGWFRQAQGKEREFVVAISKGGYKYDSVSLEGRFTISKDNAKNTVYLQINSLKPEDTAVYYCASSRAYGSSRLRLADTYEYWGQGTQVTVSSGGGGSGGGGSGGGGSGGGGSGGGGSGGGGSGGGGSEVQLVESGGGLVQTGDSLRLSCEVSGRTFSSYSMGWFRQAQGKEREFVVAISKGGYKYDSVSLEGRFTISKDNAKNTVYLQINSLKPEDTAVYYCASSRAYGSSRLRLADTYEYWGQGTQVTVSS"
measured_number = 0.00013

[[record]]
binder = "VEGFBII025 (VHH, biparatopic bivalent VHH in one chain; also called VEGFBII10E07-40GS-23B04) EVQLVESGGGLVQAGGSLRLSCAASGRTFSNYAMGWFRQAPGKERVLVADISSSGINTYVADAVKGRFTISRDNAKNTVYLQMNSLKPEDTAVYYCAASAWWYSQMARDNYRYWGQGTQVTVSSGGGGSGGGGSGGGGSGGGGSGGGGSGGGGSGGGGSGGGGSEVQLVESGGGLVQTGDSLRLSCEVSGRTFSSYSMGWFRQAQGKEREFVVAISKGGYKYDSVSLEGRFTISKDNAKNTVYLQINSLKPEDTAVYYCASSRAYGSSRLRLADTYEYWGQGTQVTVSS"
measured_number = 0.00037

